Reference source: patent US20110054188A1

Test system: plasma protein
PROCEDURE SUMMARY: Plasma protein binding rate test by equilibrium dialysis method, dog plasma
Format: in vitro ADME
CONDITION INFO: 5 μM, equilibrium dialysis 4 hours at 37° C.
Description: Plasma protein binding rates of the compounds were determined by equilibrium dialysis method (W. Lindner et al, J. Chromatography, 1996, 677, 1-28). Each test compound was dissolved in distilled water at concentration of 200 μM. […] After 4 hours, samples of plasma and the buffer were collected, and the fluorescence intensity of each was measured by EnVision (GE Corporation). […]
ASSAY ENDPOINT: Plasma protein binding rate (%) dog

COMPOUND	Plasma protein binding rate (%) dog
CC1(C)C(/C=C/C=C/C=C/C=C2/N(CCCCC(=O)O)c3ccc(S(=O)(=O)O)cc3C2(C)C)=[N+](CCCCC(=O)O)c2ccc(S(=O)(=O)O)cc21.[Na+].[Na+] [Compound 6]	59

[I] CC1(C)C(=CC=CC=CC=CC2=[N+](CCP(=O)([O-])[O-])c3ccc(S(=O)(=O)[O-])cc3C2(C)C)N(CCP(=O)([O-])[O-])c2ccc(S(=O)(=O)[O-])cc21.[Na+].[Na+].[Na+].[Na+].[Na+] [Compound 9]
[II] CC1(C)C(/C=C/C=C(/C=C/C=C2\N(CCP(=O)([O-])[O-])c3ccc(S(=O)(=O)[O-])cc3C2(C)C)c2ccccc2)=[N+](CCP(=O)([O-])[O-])c2ccc(S(=O)(=O)[O-])cc21.[Na+].[Na+].[Na+].[Na+].[Na+] [Compound 11]
Q: Consider I and II . Which of these has its Plasma protein binding rate (%) dog at a higher number? Which one? Tell me its label.
Result: II
